Can you tell me growth inhibition for the items I'm about to list?
Assay: NCI Yeast Anticancer Drug Screen. Data for the mgt1 strain (AID 153)
Conditions: S. cerevisiae mgt1 mutant growth inhibition; at 3.7 µM; stronger effect = higher value
Description: Growth inhibition of yeast strains with defined genetic alterations is measured as a screen for potential anti-cancer activity. Selected strains with alterations in DNA damage repair or cell cycle control were exposed to compounds and growth inhibition was measured relative to vehicle treated controls. The strain used in this assay is mgt1
Compounds without any hit were thinned out: in the full panel of roughly 79,000, 15% have a hit.
The reply should contain only the number, in %.

Problem: I am curious: what growth inhibition value has been reported for CC(=O)O/C(=C1\C[C@H]2[C@@H]3CC=C4C[C@@H](OC(C)=O)CC[C@]4(C)[C@H]3CC[C@]2(C)C1=O)C(F)(F)F ?
Solution: 0

Problem: For the molecule O=C(O)C1C2c3ccccc3C(c3ccccc32)C1C(=O)O (stereo unspecified) , what growth inhibition is on record?
Solution: -2

Problem: Look up growth inhibition for this molecule: Oc1cccc2nc3ccccc3nc12
Solution: -14

Problem: Look up growth inhibition: CC[PH+](CC)CC.CC[PH+](CC)CC.[Au]
Solution: 21

Problem: // returns reported growth inhibition for input O=C(O)C1C2CCC(C2)C1c1ccccc1 (stereo unspecified)
Solution: -1

Problem: Suppose we examine the molecule CCS(=O)(=O)[O][Sn]([CH2]C)([CH2]C)[O]S(=O)(=O)CC ; what growth inhibition value has been reported?
Solution: -1

---

Assay: NCI Yeast Anticancer Drug Screen. Data for the sgs1 mgt1 strain (AID 161);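 further: 0% = growth of cultures given vehicle only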
Conditions: S. cerevisiae sgs1 mgt1 strain, at 50.0 µM, stronger effect = higher value
This is part of a sample that, as a whole, favours compounds with a hit. Of some 79,000 tested, about 15% had one in any assay.
I'd appreciate it if you could supply growth inhibition values for the items below.
Express your answer in %, writing the number without its unit.

Problem: So what does the record say about growth inhibition for CCN(CC)P1(=O)OC(c2ccccc2)=CCN1c1ccc(OC)cc1 (stereo not given) ?
Solution: 97.8

Problem: If you can, please state the reported growth inhibition value of O=[N+]([O-])c1cc(S(=O)(=O)F)ccc1Cl .
Solution: 93.4

Problem: Query (compound): [Cl][Hg][Cl].c1cnccn1 ; field requested: growth inhibition
Solution: 94.3

Problem: Suppose we examine the compound Cc1cc([N+](=O)[O-])c(O)c([N+](=O)[O-])c1C ; what growth inhibition value has been reported?
Solution: 62.5

Problem: Quick one: growth inhibition for CC(=O)OCC1OC(OC(C)C)[CH]([Hg][S]Cc2ccccc2)C(OC(C)=O)C1OC(C)=O (stereo not given) ?
Solution: 44.6

Problem: Would you mind telling me what growth inhibition value was observed for Nc1ccc2cc(Br)ccc2c1 ?
Solution: 46.6

Problem: # lookup: growth inhibition of CCCCCCCCCC[Se]C#N
Solution: 99.3

Problem: Looking for the measured growth inhibition of [Cl][Sn]([Cl])([c]1ccccc1)[c]1ccccc1.c1ccncc1.c1ccncc1 , can you help?
Solution: 99

Problem: Looking for the measured growth inhibition of CCCCCC(Cn1ccnc1)c1ccc(Cl)cc1Cl (stereo not given) , can you help?
Solution: 99.4

Problem: Could you share which growth inhibition value was measured for Nc1nc(N)c(-c2ccc(Cl)c(Cl)c2)c(CCc2ccc(CNC(=O)Nc3ccc(S(=O)(=O)F)cc3)cc2)n1 ?
Solution: 79.8

Problem: Name the reported growth inhibition value associated with the compound CCOC(=O)c1ccccc1N
Solution: -5.7

Problem: What growth inhibition value was documented for this compound, CC(O)([CH2][Hg][Cl])C(O)[CH2][Hg][Cl] (stereo not given) ?
Solution: 99.3

Problem: Would you kindly share the measured growth inhibition for O=C1CN2C(Cl)(Cl)C2(c2ccccc2)c2cc(Cl)ccc2N1CC1CC1 (stereo not given) ?
Solution: 92.7

Problem: Item under review: O=C(Nc1ccccc1)OC(C[N+](=O)[O-])C(Cl)(Cl)Cl (stereo not given) . Reported growth inhibition?
Solution: 99.1

Problem: Name the reported growth inhibition value associated with the compound Cc1ccc([C@H]2N[C@@H]2c2ccccn2)cc1
Solution: 3.45

Problem: Requested field: growth inhibition. Item: COC1=C(N2CC2)C(=O)C(OC)=C(N2CC2)C1=O
Solution: 98.2

Problem: Field request: growth inhibition | item: ClCCN(CCCl)c1ccc(C=NCCCCN=Cc2ccc(N(CCCl)CCCl)cc2)cc1
Solution: 82.8

Problem: Quick one: growth inhibition of c1cc2c(c(NC3=NCCN3)c1)CCCC2 ?
Solution: -7

Problem: Fill blank: measured growth inhibition of the compound CCN(CCCl)c1cc(CN(C)C)cc(NC(=O)c2ccc(C(=O)Nc3cccc(N(CCCl)NN)c3)cc2)c1 is ____.
Solution: -2.7

Problem: Quick check: growth inhibition of CCC1(O)C(=O)OCc2c1cc1n(c2=O)Cc2cc3cc([N+](=O)[O-])ccc3nc2-1 (stereo not given) ?
Solution: 24.9

Problem: Please give the measured growth inhibition for this compound: Nc1nc(N)c2c(Cl)c(CNc3ccc(C(=O)NC(CC(=O)O)C(=O)O)cc3)ccc2n1 (stereo not given)
Solution: 55.5

Problem: growth inhibition lookup needed for O=C1N[C@@H]2C(=C[C@H](O)[C@@H](O)[C@H]2O)c2cc3c(c(O)c21)OCO3 , thanks.
Solution: 18.1

Problem: Suppose we examine the compound Br[Se]c1ccccn1 ; what growth inhibition value has been reported?
Solution: 99.6

Problem: Which growth inhibition is listed for O=C(C1C(c2ccccc2)N1C(c1ccccc1)c1ccccc1)C1C(c2ccccc2)N1C(c1ccccc1)c1ccccc1 (stereo not given) ?
Solution: 58

Problem: Given O=[N+]([O-])c1oc2ccc3ccccc3c2c1CCO , state its recorded growth inhibition.
Solution: 99.3

Problem: Quick check: growth inhibition of [Cl][Sn]([c]1ccccc1)[c]1ccccc1 ?
Solution: 89

Problem: Item under review: O=c1c[n+](-c2ccc[nH+]c2)[nH]o1.[Cl][Hg][Cl] . Reported growth inhibition?
Solution: 99.5

Problem: What does the record list as growth inhibition for COc1cc(Br)cc(/C=C(\C)[N+](=O)[O-])c1O ?
Solution: 99.8

Problem: GET /values?readout=growth inhibition&item= CCOC(=O)C1C2OC(=O)C(C(=O)C2CN(CCCl)CCCl)C1C1CC=C(CC2=CCC(C3C4C(=O)OC(C(CN(CCCl)CCCl)C4=O)C3C(=O)OCC)CC2)CC1 (stereo not given)
Solution: 57.1

Problem: Bench note: what growth inhibition did C[n+]1[se]nc2cc(C(=O)c3ccccc3)ccc21 (tested in a mixture with another compound) show?
Solution: 99

Problem: Tell me the measured growth inhibition of Cc1ccc(N=P(c2ccccc2)(c2ccccc2)c2ccccc2)cc1.[I][Hg][I] , please.
Solution: 98.9

Problem: Name the recorded growth inhibition for CC(C)c1cccc(C(C)C)c1NC(=O)C(=O)CC(=O)CC(c1ccccc1)c1c(O)c2ccccc2oc1=O (stereo not given) .
Solution: 71

Problem: Which growth inhibition is reported for this compound? CCN(CCCl)c1ccc(/C=C/C2=[N+](C)c3ccccc3C2(C)C)c(C)c1
Solution: 96.8

Problem: What value of growth inhibition has been recorded for this entry: O=[N+]([O-])c1cc([As](Br)c2ccc(O)c([N+](=O)[O-])c2)ccc1O
Solution: 99.5

Problem: Would you mind telling me what growth inhibition value was observed for CC(C)COP(=O)(O)OCC(C)C.[Al] ?
Solution: 3.05
